- testedSystem: GlcA3S(b1-3)Gal(b1-4)GlcNAc(b1-2)Man
- protocolDetails: glycan array binding signal (z-score within array); higher = stronger binding
- assaySetup: glycan notation: IUPAC condensed, linker removed
Only a selection was taken, and the strongest signals are over-represented in it overall.
parameter: glycan array binding signal (z-score)

Exercise: Tell me its glycan array binding signal (z-score) given SSP1 (Sclerotinia sclerotiorum), XP_001584968 (protein) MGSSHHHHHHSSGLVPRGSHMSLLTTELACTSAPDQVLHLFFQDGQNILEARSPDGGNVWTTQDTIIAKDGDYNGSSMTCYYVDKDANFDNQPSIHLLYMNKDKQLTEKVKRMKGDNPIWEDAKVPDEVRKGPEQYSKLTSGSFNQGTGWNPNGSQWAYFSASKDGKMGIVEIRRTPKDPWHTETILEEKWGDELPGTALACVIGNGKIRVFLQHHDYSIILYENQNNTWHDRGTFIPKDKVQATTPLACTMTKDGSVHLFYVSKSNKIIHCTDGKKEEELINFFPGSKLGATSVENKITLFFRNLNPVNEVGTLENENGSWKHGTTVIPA as the entry.
Solution: -0.535

Exercise: Using known records, supply glycan array binding signal (z-score) for Epa11 (Candida glabrata) (protein) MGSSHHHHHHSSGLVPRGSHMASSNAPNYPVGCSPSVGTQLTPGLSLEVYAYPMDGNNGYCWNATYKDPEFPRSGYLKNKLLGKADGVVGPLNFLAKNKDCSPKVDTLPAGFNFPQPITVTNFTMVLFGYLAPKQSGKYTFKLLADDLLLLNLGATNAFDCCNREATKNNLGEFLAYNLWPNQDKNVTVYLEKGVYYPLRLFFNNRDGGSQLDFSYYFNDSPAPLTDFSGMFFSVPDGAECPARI
Solution: 0.356

Exercise: Output measured glycan array binding signal (z-score) for this item: Pbx2CASH domain (Cryptococcus neoformans) (protein) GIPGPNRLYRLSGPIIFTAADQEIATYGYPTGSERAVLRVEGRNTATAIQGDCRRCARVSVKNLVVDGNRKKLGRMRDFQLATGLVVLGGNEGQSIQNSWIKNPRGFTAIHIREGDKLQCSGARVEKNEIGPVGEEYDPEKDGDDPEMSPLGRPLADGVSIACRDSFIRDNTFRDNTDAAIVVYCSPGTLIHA
Solution: 2.57

Next:
Exercise: Supply reported glycan array binding signal (z-score) belonging to this binder: AFL5 (Aspergillus fumigatus), Q4WB00 (protein) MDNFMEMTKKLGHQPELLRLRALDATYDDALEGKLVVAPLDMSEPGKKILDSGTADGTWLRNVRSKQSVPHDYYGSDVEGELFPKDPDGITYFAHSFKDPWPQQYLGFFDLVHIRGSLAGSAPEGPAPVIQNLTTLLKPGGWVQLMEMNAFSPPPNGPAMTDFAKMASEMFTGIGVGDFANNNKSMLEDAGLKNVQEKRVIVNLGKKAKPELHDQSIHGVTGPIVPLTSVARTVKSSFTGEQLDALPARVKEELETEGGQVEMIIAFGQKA
Solution: 0.082

Sourced from the supplement of paper PMC8728848
